- experimental.system: T1, 4H2774-AA
- T1 chain: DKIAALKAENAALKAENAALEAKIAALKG
- experiment: two-hybrid library CCmax;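 also: natural log of median RNA to DNA barcode read ratio; higher means stronger binding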
- condition.info: mean of both orientations
measured.endpoint: interaction score

Use these answered entries as a reference point.
[
  {
    "binder": "DENAALEAENAALKAKIAALKAEIAALEG [4H1257-AA]",
    "interaction score": 2.09
  },
  {
    "binder": "DENAALKAEIAALEAKNAALKAEIAALEG [4H1593-AA]",
    "interaction score": -0.0172
  },
  {
    "binder": "DKIAALEAKNAALKAEIAALEAKNAALKG [4H2504-AA]",
    "interaction score": -1.42
  },
  {
    "binder": "DENAALEAENAALKAKIAALKAKIAALKG [4H1262-AA]",
    "interaction score": 1.29
  },
  {
    "binder": "DENAALEAKIAALKAEIAALEAKIAALEG [4H1349-AA]",
    "interaction score": -2.01
  },
  {
    "binder": "DKIAALKAENAALKAEIAALEAKNAALKG [4H2760-AA]",
    "interaction score": -1.29
  },
  {
    "binder": "DKIAALEAKIAALEAENAALKAEIAALKG [4H2330-AA]",
    "interaction score": -1.55
  },
  {
    "binder": "DENAALEAKIAALKAKIAALEAKNAALKG [4H1384-AA]",
    "interaction score": -1.81
  },
  {
    "binder": "DKIAALEAKIAALEAKIAALEAKNAALEG [4H2343-AA]",
    "interaction score": -1.54
  },
  {
    "binder": "DEIAALEAENAALEAKIAALKAKNAALEG [4H175-AA]",
    "interaction score": -0.332
  }
]

I: DEIAALEAENAALEAEIAALEAEIAALKG [4H130-AA]
II: DKIAALEAKNAALEAKIAALEAEIAALKG [4H2466-AA]
III: DENAALKAENAALKAEIAALKAEIAALKG [4H1738-AA]
IV: DENAALKAEIAALEAENAALEAKIAALKG [4H1558-AA]
V: DKIAALKAEIAALEAENAALKAKNAALKG [4H2592-AA]
Arrange these binders by their interaction score, starting with the largest number. Sort the labels as requested; that list is your answer.
I, V, IV, III, II
(I: 0.9, V: 0.283, IV: -0.715, III: -1.15, II: -1.69)

Just for reference, paper PMC10397247 is where these values come from.
